- Tested on: NCI-H226 lung
- method: NCI tumour cell line growth inhibition, 48 h
assay endpoint: TGI

Enquiry: Reported TGI, molecule CCOC(=O)NC(=O)c1cn(C2OC(COC(=O)CCCCCCCCC(=O)OCC3OC(n4cc(C(=O)NC(=O)OCC)c(=O)[nH]c4=O)C(O)C3O)C(O)C2O)c(=O)[nH]c1=O (configuration not stated) : ____
Return: > 100 µM

Enquiry: Reported TGI, molecule `CN(CCC#N)c1ccc(/C=C2\SC(=S)NC2=O)cc1` : ____
Return: > 100 µM

Enquiry: Reported TGI, molecule `O=C(CN1c2ccccc2Sc2ccccc21)N1CCNCC1` : ____
Return: > 100 µM

Enquiry: Reported TGI, molecule `CCOc1ccc2c(c1)[n+]([O-])c(S(=O)(=O)c1ccc(C)cc1)c(N)[n+]2[O-]` : ____
Return: > 100 µM

Enquiry: Reported TGI, molecule `CCN(CC)CCc1c2c(nc3ccccc13)C(=O)c1cccnc1C2=O` : ____
Return: 18.2 µM

Enquiry: Reported TGI, molecule O=C(CI)NC1Oc2ccccc2-c2oc(=O)c(-c3ccccc3)cc21 (configuration not stated) : ____
Return: 29 µM

Enquiry: Reported TGI, molecule `NC(=O)N/N=C(\Cc1nc2ccc(Cl)cc2[nH]c1=O)C(=O)Nc1ccc(Cl)cc1Cl` : ____
Return: > 100 µM

Enquiry: Reported TGI, molecule COC(=O)C(/C(=N/NC(N)=O)C(=O)Nc1ccc(C)cc1)c1nc2ccc([N+](=O)[O-])cc2[nH]c1=O (configuration not stated) : ____
Return: > 100 µM

Enquiry: Reported TGI, molecule `COc1ccccc1C1C(C(=O)Nc2ccccc2)=C(C)NC(C)=C1C(=O)Nc1ccccc1` : ____
Return: > 100 µM

Enquiry: Reported TGI, molecule `O=C1CNCCCN2CCN(CCCNCC(=O)Nc3ccc(cc3)S(=O)(=O)c3ccc(cc3)NC(=O)CNCCCN3CCN(CCCNCC(=O)Nc4ccc(cc4)S(=O)(=O)c4ccc(cc4)N1)CC3)CC2` : ____
Return: > 73.6 µM

Enquiry: Reported TGI, molecule `CC1=C(CCCNS(C)(=O)=O)C2=C(C)C3(CC3)[C@@](C)(O)C(=O)C2=C1` : ____
Return: 5.79 µM

Enquiry: Reported TGI, molecule `O=C(c1ccco1)c1nc2ccc(C(F)(F)F)cc2[n+]([O-])c1C(F)(F)F` : ____
Return: > 100 µM

Enquiry: Reported TGI, molecule COC(=O)C1C(C(=O)OC)N(Cc2ccccc2)C(=O)N1Cc1ccccc1 (configuration not stated) : ____
Return: > 100 µM

Enquiry: Reported TGI, molecule CCCCCCCCCCCCCCCCCCNc1ccn(C2OC(COP(=O)(O)OCC3OC(n4ccc(NC(=O)CCCCCCCCCCCCCCCCC)nc4=O)C(OC(C)=O)C3OC(C)=O)C(OC(C)=O)C2OC(C)=O)c(=O)n1 (configuration not stated) : ____
Return: > 100 µM

Enquiry: Reported TGI, molecule COc1ccc(C(C#N)NNC(=O)c2ccccc2O)cc1OC (configuration not stated) : ____
Return: 22.4 µM

Enquiry: Reported TGI, molecule CC1CCC2(C(=O)O)CCC3(C)C(=CCC4C5(C)CC(O)C(O)C(C)(CO)C5C(O)CC43C)C2C1C (configuration not stated) : ____
Return: > 100 µM

Enquiry: Reported TGI, molecule `COc1ccc(/C(=C2\O[C@@H]([C@H]3COC(C)(C)O3)[C@H]3OC(C)(C)O[C@@H]23)c2cc(OC)c(OC)c(OC)c2)cc1O` : ____
Return: > 100 µM

====

Field: TGI. Provide a value for each of the compounds that follow.
- Tested on: A498 renal
- method: NCI tumour cell line growth inhibition, 48 h
Where a SMILES comes first, the peptide text is derived from it. The star is where a group is joined. Boc = CC(C)(C)OC(=O)*

Enquiry: Reported TGI, compound COC(=O)CNC(=O)C(Cc1ccccc1)NC(=O)C(CCSC)NC(=O)C(Cc1ccc(O)cc1)NC(=O)OC(C)(C)C (stereo not given) (Boc-YMFG-OMe; configuration not given here) : ____
Return: > 100 µM

Enquiry: Reported TGI, compound Cc1ccc(C)c(NC(=O)CC/C(=N\NC(=O)C(=O)NN)C(C)C(=O)c2ccc(O)cc2)c1 (stereo not given) : ____
Return: > 100 µM

Enquiry: Reported TGI, compound `COc1ccc(CNc2cc(OC)c(OC)c(OC)c2)cc1` : ____
Return: > 83.4 µM

Enquiry: Reported TGI, compound `N.N.N.O=[N+]([O-])[O-].O=[N+]([O-])[O-].O=[N+]([O-])[O-].O=[N+]([O-])[O-].[Co+3]` : ____
Return: > 100 µM

Enquiry: Reported TGI, compound COc1ccc(C2Oc3c(cc(O)c(OC)c3C)[C@@H]2C)cc1OC (stereo not given in full) : ____
Return: > 100 µM

Enquiry: Reported TGI, compound `O=C1/C(=C/c2ccccc2)N=C(c2ccccc2)N1n1c(-c2ccccc2)nc2ccccc2c1=O` : ____
Return: > 100 µM

Enquiry: Reported TGI, compound `CC1=C(O)C(=O)[C@@H]2O[C@@H]2C1=O` : ____
Return: 17.1 µM

Enquiry: Reported TGI, compound `O=C(Nc1ccc(Br)cc1)c1c(-c2ccccc2)c2ccc(O)cc2oc1=O` : ____
Return: > 10 µM

Enquiry: Reported TGI, compound `O=C1C(Cl)=C(N2CCN(C3=C(Cl)C(=O)c4ccccc4C3=O)CC2)C(=O)c2ccccc21` : ____
Return: 13.7 µM

Enquiry: Reported TGI, compound `CC1=C2C(=O)NN=C2CCN1c1ccc(Br)cc1` : ____
Return: > 100 µM

====

- Test system: RXF 393 renal
- method: NCI tumour cell line growth inhibition, 48 h
assay endpoint: TGI (µM)
Dear colleague, please return just the value in µM, with no unit written.

Enquiry: Reported TGI, molecule `COc1ccc2[nH]c3c(C)c4c(c(C)c3c2c1)CN(C)CC4` : ____
Return: 36.2

Enquiry: Reported TGI, molecule `Cc1ccc(CS/C(=C\c2ccc([N+](=O)[O-])cc2)C(=O)c2ccc(F)cc2)cc1` : ____
Return: 31.8

Enquiry: Reported TGI, molecule `O=C(O)CN(CCNC(=O)OCC1c2ccccc2-c2ccccc21)CCNC(=O)OCC1c2ccccc2-c2ccccc21` : ____
Return: 67.7

Enquiry: Reported TGI, molecule `CC[CH2][Pb]([CH2]CC)([CH2]CC)[O]C(=O)C(F)(F)F` : ____
Return: 0.277

Enquiry: Reported TGI, molecule `Brc1ccc(CCNCCN2CCCCC2)cc1` : ____
Return: 49.8

Enquiry: Reported TGI, molecule `COc1cc(OC)cc(-c2ccc(-c3ccc(C(=N)N)o3)o2)c1` : ____
Return: 5.24

====

- System: SF-268 CNS
- method: NCI tumour cell line growth inhibition, 48 h
assay endpoint: GI50

Enquiry: Reported GI50, molecule CC1=C(C(=O)Nc2ccc3[nH]ncc3c2)C(c2ccc3ccccc3c2)CC(=O)N1 (stereo not given) : ____
Return: 11.5 µM

Enquiry: Reported GI50, molecule `O=[N+]([O-])/C=C\c1ccc(Cl)c(Cl)c1` : ____
Return: 2.42 µM

Enquiry: Reported GI50, molecule `CCOc1cccc(/C=N/NC(=O)c2ccccc2Nc2ccnc(C(F)(F)F)c2)c1O` : ____
Return: 0.599 µM

Enquiry: Reported GI50, molecule O=C1OCc2c1cc1ccc(O)c(OC3OC(CO)C(O)C(O)C3O)c1c2-c1ccc2c(c1)OCO2 (stereo not given) : ____
Return: 57.1 µM

Enquiry: Reported GI50, molecule `C=C(CN1CCc2ccccc2C1)c1ccc(C(=O)Nc2cnccn2)cc1` : ____
Return: 60.4 µM

====

- Test system: HS 578T breast
- method: NCI tumour cell line growth inhibition, 48 h
Field: GI50. Provide a value for each of the molecules that follow.

Enquiry: Under HS 578T breast: GI50 value of `C[C@]12CC[C@H](O)CC1=CC[C@@H]1[C@@H]2CC[C@]2(C)C(c3cccnc3)=CC[C@@H]12` ?
Return: 7.13 µM

Enquiry: Under HS 578T breast: GI50 value of `Cc1ccc(S(=O)(=O)N(CCOc2ccc(/C(N)=N/Cl)cc2)CCOc2ccc(/C(N)=N\Cl)cc2)cc1` ?
Return: 4.28 µM

Enquiry: Under HS 578T breast: GI50 value of `COc1cc(OC)cc(-c2ccc(-c3ccc(C(=N)N)o3)o2)c1` ?
Return: 8.12 µM

Enquiry: Under HS 578T breast: GI50 value of `CSc1cc(N=Nc2nc3ccccc3s2)c2ccccc2c1O` ?
Return: 20.9 µM

Enquiry: Under HS 578T breast: GI50 value of `Cc1cc(I)cc(CNCCCN2CCSCC2)c1O` ?
Return: 12.1 µM

Enquiry: Under HS 578T breast: GI50 value of CSc1ccc(C2=NN(C(C)=O)C(c3cc(C)cs3)C2)cc1 (stereo unspecified) ?
Return: 22.3 µM

meta.source: PubChem BioAssay (NCI)
